# PROTOCOL DESCRIPTION: Cytotoxicity against wild type mouse BA/F3 cells assessed as inhibition of cell proliferation after 48 hrs by luciferase reporter gene assay in presence of recombinant mouse IL3
# Assay type: functional, cell-based
# TEST SETTINGS: BaF3, 48 h
Criterion: IC50 strictly under 4 µM. Met: Fulfilled. Not met: Not fulfilled.

(Q) Is IC50 strictly under 4 µM for the entry O=C(Nc1ccc(-c2cnc3ccc(NCc4cccc(F)c4)nn23)cc1)C1CCOCC1 ?
(A) Fulfilled

(Q) Is IC50 strictly under 4 µM for the entry N#Cc1ccc(-c2cnc3ccc(N4CCC[C@@H]4c4cccc(F)c4)nn23)cc1 ?
(A) Not fulfilled

(Q) Is IC50 strictly under 4 µM for the entry OC1CCN(c2cc(-c3cnc4ccc(N5CCC[C@@H]5c5cccc(F)c5)nn34)ccn2)CC1 ?
(A) Not fulfilled

(Q) Is IC50 strictly under 4 µM for the entry N#Cc1ccc(-c2cnc3ccc(NCc4ccccc4)nn23)cc1 ?
(A) Not fulfilled

(Q) Is IC50 strictly under 4 µM for the entry NS(=O)(=O)c1ccc(-c2cnc3ccc(NCc4cccc(F)c4)nn23)cc1 ?
(A) Fulfilled

(Q) Is IC50 strictly under 4 µM for the entry Fc1cccc([C@H]2CCCN2c2ccc3ncc(-c4ccccn4)n3n2)c1 ?
(A) Not fulfilled

(Q) Is IC50 strictly under 4 µM for the entry CN(Cc1ccccc1)c1ccc2ncc(-c3ccc(C#N)cc3)n2n1 ?
(A) Not fulfilled

(Q) Is IC50 strictly under 4 µM for the entry N#Cc1ccc(-c2cnc3ccc(N4CCCC4c4cccc(F)c4)nn23)cc1 (racemic) ?
(A) Not fulfilled

(Q) Is IC50 strictly under 4 µM for the entry N#Cc1cccc(-c2cnc3ccc(NCc4ccccc4)nn23)c1 ?
(A) Not fulfilled
